# assay.target: Isoform 2 of Nuclear receptor ROR-gamma (RORgT) (Homo sapiens)
# Sequence (P51449 whole entry): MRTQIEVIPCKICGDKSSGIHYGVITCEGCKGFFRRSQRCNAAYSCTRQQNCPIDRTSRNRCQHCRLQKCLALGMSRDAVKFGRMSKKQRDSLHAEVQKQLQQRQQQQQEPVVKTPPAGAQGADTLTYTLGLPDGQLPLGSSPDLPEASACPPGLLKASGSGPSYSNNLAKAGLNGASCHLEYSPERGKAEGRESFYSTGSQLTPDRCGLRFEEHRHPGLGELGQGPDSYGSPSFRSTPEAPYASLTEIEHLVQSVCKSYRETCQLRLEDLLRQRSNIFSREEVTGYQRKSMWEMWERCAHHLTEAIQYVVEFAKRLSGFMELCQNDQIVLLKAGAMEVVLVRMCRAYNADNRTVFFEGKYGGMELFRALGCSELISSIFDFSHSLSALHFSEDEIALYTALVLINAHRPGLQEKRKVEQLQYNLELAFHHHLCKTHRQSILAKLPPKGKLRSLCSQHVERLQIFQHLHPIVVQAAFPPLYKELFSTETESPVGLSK
# procedure.text: TR-FRET Assay
# assay.context: pH 7; 4 °C
property.label: IC50

I looked up CC1CC(c2nn(C(=O)c3c(Cl)cccc3C(F)(F)F)c3cccc(F)c23)=CC(O)C1C(=O)O (stereo unspecified) [US9487490, 6C] and its IC50 for Isoform 2 of Nuclear receptor ROR-gamma (RORgT) (Homo sapiens) was 5 nM
